Target: rabbit muscle glycogen phosphorylase a (RMGPa) (Oryctolagus cuniculus)
Sequence (P00489 2-843 limits assumed): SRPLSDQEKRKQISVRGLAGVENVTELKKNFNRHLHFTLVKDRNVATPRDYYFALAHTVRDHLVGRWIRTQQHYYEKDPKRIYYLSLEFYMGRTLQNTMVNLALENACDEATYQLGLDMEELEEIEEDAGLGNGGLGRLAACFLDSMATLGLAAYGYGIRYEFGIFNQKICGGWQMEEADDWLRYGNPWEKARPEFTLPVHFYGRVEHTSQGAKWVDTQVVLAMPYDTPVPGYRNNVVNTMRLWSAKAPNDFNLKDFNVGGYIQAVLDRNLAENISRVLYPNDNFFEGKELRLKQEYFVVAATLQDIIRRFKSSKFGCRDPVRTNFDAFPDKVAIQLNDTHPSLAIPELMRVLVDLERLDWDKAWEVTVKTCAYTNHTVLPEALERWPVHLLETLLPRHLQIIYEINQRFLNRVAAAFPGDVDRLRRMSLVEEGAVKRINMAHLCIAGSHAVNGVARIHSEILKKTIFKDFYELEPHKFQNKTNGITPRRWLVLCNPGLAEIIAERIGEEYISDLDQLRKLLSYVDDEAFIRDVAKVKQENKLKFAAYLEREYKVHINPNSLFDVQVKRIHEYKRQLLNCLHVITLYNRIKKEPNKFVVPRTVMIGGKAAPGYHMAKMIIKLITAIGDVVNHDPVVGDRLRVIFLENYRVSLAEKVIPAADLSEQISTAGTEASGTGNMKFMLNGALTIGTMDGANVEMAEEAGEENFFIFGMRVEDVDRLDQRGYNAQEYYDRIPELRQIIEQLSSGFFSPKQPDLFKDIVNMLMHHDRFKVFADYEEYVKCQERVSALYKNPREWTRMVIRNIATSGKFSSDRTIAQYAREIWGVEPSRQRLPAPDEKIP
In this section we review reported IC50 values for a set of molecules.
measured.attribute: IC50 (µM)

[[record]]
molecule = "O=C(Nc1ccc2c(c1)C(=O)NCCO2)c1cc2cc(Cl)ccc2[nH]1 [Compound 5d, reference compound]"
val = 0.25

[[record]]
molecule = "CCCCCOC1COc2ccc(NC(=O)c3cc4cc(Cl)ccc4[nH]3)cc2C(=O)N1 (stereo not drawn) [Compound 8e]"
val = 0.88

[[record]]
molecule = "CCCCCCOC1COc2ccc(NC(=O)c3cc4cc(Cl)ccc4[nH]3)cc2C(=O)N1 (stereo not drawn) [Compound 8f]"
val = 0.29

[[record]]
molecule = "O=C(Nc1ccc2c(c1)C(=O)NC(OCc1ccccc1)CO2)c1cc2cc(Cl)ccc2[nH]1 (stereo not drawn) [Compound 8g]"
val = 0.62

[[record]]
molecule = "COC1COc2ccc(NC(=O)c3cc4cc(Cl)ccc4[nH]3)cc2C(=O)N1 (stereo not drawn) [Compound 8a]"
val = 0.21

[[record]]
molecule = "CCCCOC1COc2ccc(NC(=O)c3cc4cc(Cl)ccc4[nH]3)cc2C(=O)N1 (stereo not drawn) [Compound 8d]"
val = 0.71

